I'd appreciate it if you could supply pEC50 values for the items below.
target: glutathione-S-transferase (GST) tagged LXRbeta LBD (ligand binding domain) (Homo sapiens, UniProt P55055)
Construct: purchased Invitrogen pv4658
protocol.notes: LanthaScreen TR-FRET Liver X Receptor Coactivator Assay, LXR beta
Format: biochemical
details: LXR beta IP, potency (Inflection Point), compound-induced co-activator recruitment, TR-FRET
The meaning of pEC50 here: minus log10 of the concentration in molar units.

Input line: Given CN(C)C(=O)c1ccc(OCCCCC2CCN(C(=O)c3c(F)cccc3F)CC2)nc1Cl , state its recorded pEC50.
Output line: 6.48

Input line: Given CN(C)C(=O)c1ccc(OCC2CC3(CCN(C(=O)C(C)(C)c4ccccc4)CC3)C2)cc1Cl , state its recorded pEC50.
Output line: 6.66

Input line: Given CN(C)C(=O)c1ccc(OCCCCC2CCN(S(=O)(=O)c3ccccc3C#N)CC2)nc1Cl , state its recorded pEC50.
Output line: 6.95

Input line: Given CN(C)C(=O)c1ccc(OCCC2CC23CCN(C(=O)Cc2cccc(Br)c2)CC3)cc1Cl (single isomer, unassigned) , state its recorded pEC50.
Output line: 6.82

Input line: Given COc1cccc(C(O)(C(=O)N2CCC(CCCCOc3ccc(C(=O)N(C)C)c(Cl)c3)CC2)C(F)(F)F)c1 (single isomer, unassigned) , state its recorded pEC50.
Output line: 6.40

Input line: Given Cc1nnc(C(C)(C)C(=O)N2CCC3(CC2)CC3CCOc2ccc(C(=O)N(C)C)c(Cl)c2)s1 (single isomer, unassigned) , state its recorded pEC50.
Output line: 6.18

Input line: Given COc1cccc(C(O)(C(=O)N2CCC(C3CC3(C)COc3ccc(C(=O)N(C)C)c(Cl)c3)CC2)C(F)(F)F)c1 (single isomer, unassigned) , state its recorded pEC50.
Output line: 7.18

Input line: Given CN(C)C(=O)c1ccc(OCCCC2CCN(C(=O)[C@](O)(c3ccccc3)C(F)(F)F)CC2)nc1Cl (single isomer, unassigned) , state its recorded pEC50.
Output line: 7.60

Input line: Given COc1ccccc1[C@@](O)(C(=O)N1CCC2(CC1)C[C@H]2CCCOc1ccc(C(=O)N(C)C)c(Cl)c1)C(F)(F)F (single isomer, unassigned) , state its recorded pEC50.
Output line: 7.39

Input line: Given CN(C)C(=O)c1ccc(OCC2(CC3CCN(C(=O)C(O)(c4ccccc4)C(F)(F)F)CC3)CC2)cc1Cl (single isomer, unassigned) , state its recorded pEC50.
Output line: 6.73

Input line: Given CCc1cccc(C(O)(C(=O)N2CCC(CCCCOc3ccc(C(=O)N(C)C)c(Cl)c3)CC2)C(F)(F)F)c1 (single isomer, unassigned) , state its recorded pEC50.
Output line: 7.80

Input line: Given CN(C(=O)c1ccc(OCCCCC2CCN(C(=O)[C@](O)(c3ccccc3)C(F)(F)F)CC2)cc1Cl)C1CC1 (single isomer, unassigned) , state its recorded pEC50.
Output line: 7.80

----------
target: glutathione-S-transferase (GST) tagged LXRalpha LBD (ligand binding domain) (Homo sapiens, UniProt Q13133)
Construct: purchased Invitrogen pv4655
Sequence (Q13133 209-447 limits assumed): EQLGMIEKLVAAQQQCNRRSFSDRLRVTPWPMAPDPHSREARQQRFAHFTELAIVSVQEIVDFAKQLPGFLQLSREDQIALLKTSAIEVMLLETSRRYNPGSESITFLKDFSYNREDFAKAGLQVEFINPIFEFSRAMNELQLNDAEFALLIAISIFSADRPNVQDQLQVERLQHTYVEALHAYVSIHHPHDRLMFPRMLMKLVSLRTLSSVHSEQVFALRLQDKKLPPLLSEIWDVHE
protocol.notes: biochemical
details: efficacy (% Emax) in relation to reference dual agonist T0901317
experimental.readout: LXR alpha actiivty at max dose (%)
API: value field is a number in %; no unit string.

Input line: Given CC(CCCOc1ccc(C(=O)N(C)C)c(Cl)c1)C1CCN(C(=O)C(O)(c2ccccc2)C(F)(F)F)CC1 (single isomer, unassigned) [Example 26-3] , state its recorded LXR alpha actiivty at max dose.
Output line: 48

Input line: Given COc1cccc(C(O)(C(=O)N2CCC3(CCC(Oc4ccc(C(=O)N(C)C)c(Cl)n4)CC3)CC2)C(F)(F)F)c1 (single isomer, unassigned) [Example 1-3] , state its recorded LXR alpha actiivty at max dose.
Output line: 21

Input line: Given CC(C)C(O)(C(=O)N1CCC(C2CC2COc2ccc(C(=O)N(C)C)c(Cl)c2)CC1)C(F)(F)F (single isomer, unassigned) [Example 32-1] , state its recorded LXR alpha actiivty at max dose.
Output line: 0

Input line: Given CC(C)C(O)(C(=O)N1CCC(C2CC2COc2ccc(C(=O)N(C)C)c(Cl)c2)CC1)C(F)(F)F (single isomer, unassigned) [Example 32-2] , state its recorded LXR alpha actiivty at max dose.
Output line: 8

Input line: Given CC(CCCOc1ccc(C(=O)N(C)C)c(Cl)c1)C1CCN(C(=O)C(O)(c2ccccc2)C(F)(F)F)CC1 (single isomer, unassigned) [Example 26-4] , state its recorded LXR alpha actiivty at max dose.
Output line: 35

----------
target: glutathione-S-transferase (GST) tagged LXRbeta LBD (ligand binding domain) (Homo sapiens, UniProt P55055)
Construct: purchased Invitrogen pv4658
Sequence (P55055 222-460 limits assumed): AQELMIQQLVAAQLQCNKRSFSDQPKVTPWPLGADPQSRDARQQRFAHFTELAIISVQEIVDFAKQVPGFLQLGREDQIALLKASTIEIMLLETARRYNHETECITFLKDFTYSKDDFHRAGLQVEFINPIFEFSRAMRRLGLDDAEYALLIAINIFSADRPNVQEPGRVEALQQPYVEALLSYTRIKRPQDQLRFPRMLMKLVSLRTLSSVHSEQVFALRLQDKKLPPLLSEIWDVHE
protocol.notes: LanthaScreen TR-FRET Liver X Receptor Coactivator Assay, LXR beta
Assay type: biochemical
details: read-out: LXR beta actiivty at max dose, efficacy (% Emax) in relation to reference dual agonist T0901317
experimental.readout: Emax
Could you kindly put the unit after your number?

Input line: Given O=C(c1cscn1)N1CCC(CCCCOc2ccc(C(=O)N3CCCC3)c(Cl)c2)CC1 , state its recorded Emax.
Output line: 25%

Input line: Given COc1cccc(C(O)(C(=O)N2CCC(CC(C)CC(C)Oc3ccc(C(=O)N(C)C)c(Cl)c3)CC2)C(F)(F)F)c1 (single isomer, unassigned) , state its recorded Emax.
Output line: 84%

Input line: Given CN(C)C(=O)c1ccc(OCC(F)CCC2CCN(C(=O)C(O)(c3ccccc3)C(F)(F)F)CC2)cc1Cl (single isomer, unassigned) , state its recorded Emax.
Output line: 72%

Input line: Given CC(C)[C@@](O)(C(=O)N1CCC2(CC1)C[C@H]2CCOc1ccc(C(=O)N(C)C)c(Cl)c1)C(F)(F)F (single isomer, unassigned) , state its recorded Emax.
Output line: 79%

Input line: Given COc1cccc(C(O)(C(=O)N2CCC(C3CC3(C)COc3ccc(C(=O)N(C)C)c(Cl)c3)CC2)C(F)(F)F)c1 (single isomer, unassigned) , state its recorded Emax.
Output line: 84%

Input line: Given COc1cccc(C(O)(C(=O)N2CCC3(CCC3CCCOc3ccc(C(=O)N(C)C)c(Cl)c3)CC2)C(F)(F)F)c1 (single isomer, unassigned) , state its recorded Emax.
Output line: 52%

Input line: Given CN(C)C(=O)c1ccc(OCC[C@@H]2CC23CCN(C(=O)[C@](N)(c2ccccc2)C(F)(F)F)CC3)cc1Cl (single isomer, unassigned) , state its recorded Emax.
Output line: 47%

Input line: Given COc1ccccc1[C@@](O)(C(=O)N1CCC2(CC1)C[C@H]2CCCOc1ccc(C(=O)N(C)C)c(Cl)c1)C(F)(F)F (single isomer, unassigned) , state its recorded Emax.
Output line: 81%

Input line: Given CN(C)C(=O)c1ccc(OCCCCC2CCN(C(=O)C(O)(c3cccc(Cl)c3)C(F)(F)F)CC2)cc1Cl (single isomer, unassigned) , state its recorded Emax.
Output line: 79%

Input line: Given CN(C)C(=O)c1ccc(OCCC2CC23CCN(C(=O)C(C)(C)c2cccc(Br)n2)CC3)cc1Cl (single isomer, unassigned) , state its recorded Emax.
Output line: 32%

Input line: Given CCc1cccc(C(O)(C(=O)N2CCC(CCCCOc3ccc(C(=O)N(C)C)c(Cl)c3)CC2)C(F)(F)F)c1 (single isomer, unassigned) , state its recorded Emax.
Output line: 76%

Input line: Given CN(C)C(=O)c1ccc(OCCC2CC23CCN(C(=O)C2(c4ccccc4)CCCC2)CC3)cc1Cl (single isomer, unassigned) , state its recorded Emax.
Output line: 58%

----------
target: glutathione-S-transferase (GST) tagged LXRalpha LBD (ligand binding domain) (Homo sapiens, UniProt Q13133)
Construct: purchased Invitrogen pv4655
protocol.notes: biochemical
details: read-out: LXR alpha actiivty at max dose, efficacy (% Emax) in relation to reference dual agonist T0901317
experimental.readout: Emax

Input line: Given CN(C)C(=O)c1ccc(OCCCC2CC23CCN(C(=O)C2(c4ccccc4)CCCC2)CC3)cc1Cl (single isomer, unassigned) [Example 14-2] , state its recorded Emax.
Output line: 17%

Input line: Given O=C(NCC(F)F)c1ccc(OCCCCC2CCN(C(=O)[C@](O)(c3ccccc3)C(F)(F)F)CC2)cc1Cl (single isomer, unassigned) [Example 8-9] , state its recorded Emax.
Output line: 34%

Input line: Given CN(C(=O)c1ccc(OCCCCC2CCN(C(=O)[C@](O)(c3ccccc3)C(F)(F)F)CC2)cc1Cl)[C@H]1CCOC1 (single isomer, unassigned) [Example 8-16] , state its recorded Emax.
Output line: 32%

Input line: Given COc1cccc(C(O)(C(=O)N2CCC(C3CC3(C)COc3ccc(C(=O)N(C)C)c(Cl)c3)CC2)C(F)(F)F)c1 (single isomer, unassigned) [Example 16-1] , state its recorded Emax.
Output line: 18%

Input line: Given CCc1cccc([C@@](O)(C(=O)N2CCC(C[C@H]3C[C@@H](Oc4ccc(C(=O)N(C)C)c(Cl)c4)C3)CC2)C(F)(F)F)c1 (single isomer, unassigned) [Example 37-4] , state its recorded Emax.
Output line: 13%

Input line: Given CN(C)C(=O)c1ccc(OCCC2CC3(CCN(C(=O)C(O)(c4ccccc4)C(F)(F)F)CC3)C2)cc1Cl (single isomer, unassigned) [Example 34-1] , state its recorded Emax.
Output line: 46%

Input line: Given CN(C)C(=O)c1ccc(OCCC2CC23CCN(C(=O)C(C)(C)c2ccsc2)CC3)cc1Cl (single isomer, unassigned) [Example 12-7] , state its recorded Emax.
Output line: 39%

Input line: Given CNC(=O)c1ccc(OCCCCC2CCN(C(=O)[C@](O)(c3cccc(OC)c3)C(F)(F)F)CC2)cc1Cl (single isomer, unassigned) [Example 8-18] , state its recorded Emax.
Output line: 31%

Input line: Given CN(C)C(=O)c1ccc(OCCCCC2CCN(C(=O)C(O)(c3cccnc3)C(F)(F)F)CC2)nc1Cl (stereo not drawn) [Example 6-2] , state its recorded Emax.
Output line: 74%

Input line: Given CN(C)C(=O)c1ccc(OC[C@@H](F)CCC2CCN(C(=O)[C@](O)(c3ccccc3)C(F)(F)F)CC2)cc1Cl (single isomer, unassigned) [Example 20-2] , state its recorded Emax.
Output line: 25%

Input line: Given CN(C)C(=O)c1ccc(OCCCCC2CCN(S(=O)(=O)c3ccccc3C#N)CC2)nc1Cl [Example 7-3] , state its recorded Emax.
Output line: 57%

Input line: Given Cc1cc(OC2CC(CC3CCN(C(=O)C(O)(c4cccc(OC5CC5)c4)C(F)(F)F)CC3)C2)ccc1C(=O)N(C)C (single isomer, unassigned) [Example 37-12] , state its recorded Emax.
Output line: 0%

From: patent US11655216B2
